measured.target: T1, EsCas13d, nuclease-dead (Eubacterium siraeum, UniProt B0MS50, R295A;H300A;R849A;H854A)
T1 sequence: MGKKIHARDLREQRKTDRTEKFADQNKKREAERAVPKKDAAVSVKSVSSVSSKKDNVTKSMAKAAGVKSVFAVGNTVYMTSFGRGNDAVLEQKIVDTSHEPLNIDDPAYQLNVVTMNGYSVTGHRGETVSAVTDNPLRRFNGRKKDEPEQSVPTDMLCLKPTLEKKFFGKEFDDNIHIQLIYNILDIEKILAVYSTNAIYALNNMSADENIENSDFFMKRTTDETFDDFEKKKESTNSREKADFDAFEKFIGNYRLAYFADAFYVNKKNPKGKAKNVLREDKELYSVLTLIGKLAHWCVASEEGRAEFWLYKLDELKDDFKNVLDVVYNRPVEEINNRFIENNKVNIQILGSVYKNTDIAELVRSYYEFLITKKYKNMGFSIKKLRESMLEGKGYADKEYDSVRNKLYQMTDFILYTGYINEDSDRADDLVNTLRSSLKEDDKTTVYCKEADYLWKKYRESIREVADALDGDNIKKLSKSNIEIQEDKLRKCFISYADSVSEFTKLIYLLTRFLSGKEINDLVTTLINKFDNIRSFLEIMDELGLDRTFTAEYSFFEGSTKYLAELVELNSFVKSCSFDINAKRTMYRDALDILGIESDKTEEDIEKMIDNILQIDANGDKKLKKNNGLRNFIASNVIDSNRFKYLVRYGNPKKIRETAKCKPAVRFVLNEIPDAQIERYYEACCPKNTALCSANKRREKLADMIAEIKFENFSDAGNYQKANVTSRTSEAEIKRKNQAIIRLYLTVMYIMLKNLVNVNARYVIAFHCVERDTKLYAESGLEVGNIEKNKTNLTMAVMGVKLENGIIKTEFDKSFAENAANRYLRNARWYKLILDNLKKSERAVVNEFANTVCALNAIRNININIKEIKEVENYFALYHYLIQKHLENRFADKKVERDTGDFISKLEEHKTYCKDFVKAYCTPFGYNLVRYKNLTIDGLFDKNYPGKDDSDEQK
measurement.notes: crRNA (strand 1, pre-loaded); Mg2+; 40 mM Tris-HCl pH 7.5, 150 mM NaCl, 6 mM MgCl2, 1 mM DTT, 0.1% Tween-20, 0.2 mg/ml BSA; 25 C; 10 min per concentration, then washed
experimental.conditions: tags: His6-TwinStrep-SUMO cleaved; N-terminal SNAP kept (SNAP-Surface 488); label: 3' end held by stalled T7 RNA polymerase
pKd: −log10 of the molar value.
measurement.name: pKd

[[record]]
binder = "target 1 MT 5'PFS CCU 3'PFS CUG (mixed) RNA 1: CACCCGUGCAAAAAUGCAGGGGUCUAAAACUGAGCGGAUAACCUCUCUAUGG RNA 2: GGGAAUGGAUCCACAUCUACGAAUUCCCUCCAUAGAGAGGUUAUCCGCUCACUGAGAUCGGAAGAGCACACGU"
value_reported = 7.68

[[record]]
binder = "target 1 A9G,G12A (mixed) RNA 1: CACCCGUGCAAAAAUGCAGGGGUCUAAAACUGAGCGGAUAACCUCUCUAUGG RNA 2: GGGAAUGGAUCCACAUCUACGAAUUCGUACCAUAGAGAGAUUGUCCGCUCACCGAGAUCGGAAGAGCACACGU"
value_reported = 8.17

[[record]]
binder = "target 3 insC 3' of 5,insA 3' of 1 (mixed) RNA 1: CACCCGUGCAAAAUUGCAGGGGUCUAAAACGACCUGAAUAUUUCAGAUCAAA RNA 2: GGGAAUGGAUCCACAUCUACGAAUUCGUUUUUGAUCUGAAAUAUUCACGGUCAUGCAGAUCGGAAGAGCACACGU"
value_reported = 7.64

[[record]]
binder = "target 1 MT 5'PFS GUA 3'PFS AAC (mixed) RNA 1: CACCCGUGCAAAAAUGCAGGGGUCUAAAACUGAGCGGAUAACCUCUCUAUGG RNA 2: GGGAAUGGAUCCACAUCUACGAAUUCGUACCAUAGAGAGGUUAUCCGCUCAAACAGAUCGGAAGAGCACACGU"
value_reported = 7.69

